Data provenance: paper PMC4336329

target: human ether-à-go-go-related gene (hERG) potassium channel (human, UniProt Q12809); assay: primary screen, population patch clamp on CHO cells stably expressing hERG; higher = less effect of the substance;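 note: peak tail current of the secondary pulse compared with the same well before compound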
Sequence (Q12809 whole entry, looked up): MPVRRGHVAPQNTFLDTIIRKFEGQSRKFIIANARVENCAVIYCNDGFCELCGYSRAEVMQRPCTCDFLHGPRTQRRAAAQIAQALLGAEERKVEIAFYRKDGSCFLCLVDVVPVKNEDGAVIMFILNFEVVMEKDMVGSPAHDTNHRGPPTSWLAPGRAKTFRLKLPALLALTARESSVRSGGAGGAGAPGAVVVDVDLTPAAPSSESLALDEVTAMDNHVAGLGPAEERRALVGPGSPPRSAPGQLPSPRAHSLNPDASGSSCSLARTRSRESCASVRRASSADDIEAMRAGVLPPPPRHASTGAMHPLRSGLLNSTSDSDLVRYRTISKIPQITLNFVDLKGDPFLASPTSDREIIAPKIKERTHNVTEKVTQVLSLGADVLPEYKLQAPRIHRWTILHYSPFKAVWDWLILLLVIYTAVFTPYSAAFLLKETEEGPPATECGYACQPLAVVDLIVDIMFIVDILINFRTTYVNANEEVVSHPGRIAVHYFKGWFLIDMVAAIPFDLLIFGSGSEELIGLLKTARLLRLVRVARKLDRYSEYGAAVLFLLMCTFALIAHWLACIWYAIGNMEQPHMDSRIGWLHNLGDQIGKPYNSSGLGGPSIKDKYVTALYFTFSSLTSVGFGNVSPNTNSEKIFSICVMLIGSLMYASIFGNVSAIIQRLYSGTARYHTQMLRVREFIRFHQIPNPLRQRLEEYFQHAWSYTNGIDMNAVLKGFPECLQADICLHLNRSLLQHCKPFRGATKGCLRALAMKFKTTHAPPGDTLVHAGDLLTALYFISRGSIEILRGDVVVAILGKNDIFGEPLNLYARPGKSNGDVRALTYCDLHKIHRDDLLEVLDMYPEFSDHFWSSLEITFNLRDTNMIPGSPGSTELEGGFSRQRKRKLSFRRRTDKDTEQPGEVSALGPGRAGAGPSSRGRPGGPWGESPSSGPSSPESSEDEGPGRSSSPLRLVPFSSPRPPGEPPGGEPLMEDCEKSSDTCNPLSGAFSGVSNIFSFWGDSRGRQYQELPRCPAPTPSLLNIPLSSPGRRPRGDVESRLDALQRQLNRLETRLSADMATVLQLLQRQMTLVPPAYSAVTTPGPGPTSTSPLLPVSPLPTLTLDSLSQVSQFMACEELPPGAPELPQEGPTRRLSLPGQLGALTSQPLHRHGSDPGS
Hit rate of the full screen: of about 310,000 compounds, about 14,000 (4.5%) showed an effect of 50% or more. Effects have a minus sign here. Many of the other results were omitted from the sample, so strong results are more common in it than they were.
Quantity kind: hERG current change (%, negative = inhibition) at 10uM (%)
All answers are understood in %, so give the number only.

Please look at this compound and report its hERG current change (%, negative = inhibition) at 10uM: CC(C)C(=O)N1CCN(c2ccc(NC(=O)c3ccc4c(c3)OCCO4)cc2Cl)CC1
-15

Please look at this compound and report its hERG current change (%, negative = inhibition) at 10uM: O=C(CSc1nc2ccccc2[nH]1)N1CCN(c2ccccc2)CC1
-0.235

Please look at this compound and report its hERG current change (%, negative = inhibition) at 10uM: CN(c1ccccc1C(=O)Nc1cccc(Br)c1)S(=O)(=O)c1ccccc1
-5.01

Please look at this compound and report its hERG current change (%, negative = inhibition) at 10uM: Cc1ccc2[nH]c3c(c2c1)CN(C(=O)CN(C)CC1OCCO1)CC3
12.7

Please look at this compound and report its hERG current change (%, negative = inhibition) at 10uM: Cc1onc(-c2c(F)cccc2Cl)c1C(=O)OCc1cnc(Cl)s1
-3.61

Please look at this compound and report its hERG current change (%, negative = inhibition) at 10uM: COc1ccc(NS(=O)(=O)c2cccc(C(=O)NNC(=O)CNC(=O)c3ccco3)c2)cc1
12.8

Please look at this compound and report its hERG current change (%, negative = inhibition) at 10uM: COc1ccc(CN2CCN(C3CCC3)CC2CCO)cc1C (stereo not shown)
8.14

Please look at this compound and report its hERG current change (%, negative = inhibition) at 10uM: CN1CCN(c2ccc(NC(=O)c3ccc4c(c3)OCCO4)cc2Cl)CC1
-81.2

Please look at this compound and report its hERG current change (%, negative = inhibition) at 10uM: CN(CC(=O)Nc1ccc(C(N)=O)cc1)CC(=O)Nc1ccccc1Br
11

Please look at this compound and report its hERG current change (%, negative = inhibition) at 10uM: CCc1nnc(NC(=O)c2c(-c3ccccc3)noc2C)s1
10.2

Please look at this compound and report its hERG current change (%, negative = inhibition) at 10uM: COC(=O)[C@@H](NC(=O)NCCC1=CCCCC1)C(C)C
-3.29

Please look at this compound and report its hERG current change (%, negative = inhibition) at 10uM: OCCC1CN(C2CCN(c3ccccc3F)CC2)CCN1Cc1ccccc1 (stereo not shown)
-61.8

Please look at this compound and report its hERG current change (%, negative = inhibition) at 10uM: CCOC(=O)CC(NC(=O)Cc1ccccc1)c1ccccc1Cl (stereo not shown)
1.83

Please look at this compound and report its hERG current change (%, negative = inhibition) at 10uM: CN(c1ccccc1C(=O)Nc1cccc([N+](=O)[O-])c1)S(=O)(=O)c1ccccc1
-63.2

Please look at this compound and report its hERG current change (%, negative = inhibition) at 10uM: COc1ccc(/C=N/NC(=O)c2ccc(NC(=O)C3CCCCC3)cc2)cc1O
24.3

Please look at this compound and report its hERG current change (%, negative = inhibition) at 10uM: O=C(CSc1nc2ccccc2[nH]1)N1CCCCC1
-2

Please look at this compound and report its hERG current change (%, negative = inhibition) at 10uM: Cc1c(CN2CCc3c([nH]c4ccccc34)C2C2CCCCC2)cnn1C (stereo not shown)
-38.7

Please look at this compound and report its hERG current change (%, negative = inhibition) at 10uM: CSc1ccc(Cl)c(C(=O)Nc2ccc(N3CCOCC3)cc2)c1
-1.67

Please look at this compound and report its hERG current change (%, negative = inhibition) at 10uM: O=C(Nc1ccc(N2CCOCC2)c(Cl)c1)c1ccc2c(c1)OCCO2
-0.379

Please look at this compound and report its hERG current change (%, negative = inhibition) at 10uM: O=C(CSc1nc2ccccc2[nH]1)N1CCN(c2ccc(F)cc2)CC1
-55.6

Please look at this compound and report its hERG current change (%, negative = inhibition) at 10uM: Cc1ccc(C(=O)NCCc2nnc3ccc(SCC(=O)N4CCCCC4)nn23)cc1
4.02

Please look at this compound and report its hERG current change (%, negative = inhibition) at 10uM: CN(Cc1ccccc1)S(=O)(=O)c1ccc(OCC(=O)Nc2cccc([N+](=O)[O-])c2)cc1
-9.01

Please look at this compound and report its hERG current change (%, negative = inhibition) at 10uM: CCOc1ccccc1C(=O)NCC(=O)N(C)Cc1cccnc1
-3.07

Please look at this compound and report its hERG current change (%, negative = inhibition) at 10uM: Cc1nc(-c2ccc(C(=O)Nc3cccc(Br)c3)cc2)cs1
7.02

Please look at this compound and report its hERG current change (%, negative = inhibition) at 10uM: CN(CC(=O)Nc1cccc([N+](=O)[O-])c1)S(=O)(=O)c1ccccc1
-51.9

Please look at this compound and report its hERG current change (%, negative = inhibition) at 10uM: COc1cccc(CN2CCN(C3CCN(c4cccc(C)c4C)CC3)CC2CCO)c1 (stereo not shown)
-66.2

Please look at this compound and report its hERG current change (%, negative = inhibition) at 10uM: O=C(Nc1ccc(N2CCCCC2)c(Cl)c1)c1ccc2c(c1)OCCO2
-1.06

Please look at this compound and report its hERG current change (%, negative = inhibition) at 10uM: O=C(COC(=O)c1ccccc1O)Nc1cc([N+](=O)[O-])ccc1Cl
-21.5

Please look at this compound and report its hERG current change (%, negative = inhibition) at 10uM: COc1ccc(-c2nc(CC(=O)O)cs2)cc1
6.7

Please look at this compound and report its hERG current change (%, negative = inhibition) at 10uM: CC(=O)c1cccc(NC(=O)CN(C)S(=O)(=O)c2ccccc2)c1
-11.5

Please look at this compound and report its hERG current change (%, negative = inhibition) at 10uM: OCCC1CN(C2CCN(c3ccccc3)CC2)CCN1Cc1ccc(F)c(F)c1 (stereo not shown)
-71.2
